Test: qHTS Validation assay for Inhibitors of Plasmodium falciparum Dd2 growth in vitro; also: nearly all actives have a fitted effect of over 70% in size; also: potency is read from the fitted curve at half-maximal effect
Settings: P. falciparum Dd2 in RBCs, SYBR Green growth, 72 h; series mostly up to 28.7 µM
The whole screen tested about 4,100 compounds, of which about 1,600 (39%) were called active. Not shown: some 25% with an inconclusive outcome. Some of the results follow.
measure name: Potency

COc1cc(NC(=O)Cn2c(=O)n(CC3CCCO3)c(=O)c3ccccc32)cc(OC)c1 (configuration not stated) : inactive
CN(C)CC(O)COc1ccc(C(C)(C)c2ccc(OCC(O)CN(C)C)cc2)cc1 (configuration not stated) : 8.41 µM (active)
O=C(CCl)Nc1cccc(-c2cnc3ccccc3n2)c1 : 6.68 µM (active)
CC(C)(C)c1ccc(-c2noc(-c3ncn4c3COC(c3ccc(F)cc3)C4)n2)cc1 (configuration not stated) : 15 µM (active)
CC1(CNc2ccccc2)COc2ccc(C(=O)NCc3ccc(F)cc3)cc2N1 (configuration not stated) : inactive
CCOc1ccccc1NC(=O)Cn1c(-c2ccccc2)nc(C)cc1=O : inactive
CCN1c2cc(C(=O)Nc3cc(C)cc(C)c3)ccc2C(=O)N2CCCC21 (configuration not stated) : inactive
CCN(CC)CCNC(=O)C1CCCN(S(=O)(=O)c2ccccc2)CCC(=O)NCC1 (configuration not stated) : inactive
Brc1c(C[n+]2ccccc2)nc2ccccn12 : inactive
CCCCCNC(=O)C1CCC(Cn2c(=O)c3sccc3n(CC(=O)N3CCCC3)c2=O)CC1 (configuration not stated) : inactive

Which Potency reading was recorded for the compound `O=C(Nc1ccc2oc(-c3cccc(F)c3)nc2c1)c1ccc2ccccc2c1` ?
inactive

I have this compound here, `O=C(Nc1ccccc1C(F)(F)F)c1cc(-c2ccccc2O)on1` , and I need its recorded Potency.
2.99 µM (active)

I am curious: what Potency value has been reported for `Cc1cc(=O)n(CC(=O)Nc2ccccc2F)c(N2CCc3ccccc3C2)n1` ?
inactive

Recorded Potency of Cc1ccc(C)n1-c1nnc(N2CCCC(C(=O)NCc3ccccc3)C2)s1 (configuration not stated) , please.
inactive

Given the entry `CCc1cc(CN(C)C(=O)c2cc(COc3ccccc3F)[nH]n2)on1` , report its measured Potency.
inactive

Endpoint output: Potency of `CCN(CC)CCNC(=O)c1c(O)c2cccc3c2n(c1=O)CCC3` . Value?
10.6 µM (active)

Recorded Potency for O=C(NCc1ccc(N2CCCC2)cc1)C1CCCN(c2cnn(Cc3ccccc3)c(=O)c2)C1 (configuration not stated) , please?
10.6 µM (active)

Using the record for OC(c1cc(-c2ccc(C(F)(F)F)cc2)nc(C(F)(F)F)c1)C1CCCCN1 (configuration not stated) , report its Potency.
0.15 µM (active)

Look up Potency for this compound: CCN(CC)c1ccc(C(=O)N2CCCC(n3cc(-c4noc(C)n4)nn3)C2)cc1 (configuration not stated)
inactive

// lookup Potency for `Cc1cn2nc(C(=O)Nc3ccc4c(c3)OCCO4)cc2c(N2CCCC2)n1`
inactive

Look at this compound and give its reported Potency. `CCOc1cccc(CN2C[C@@H]3C(=O)N(CCN4CCc5ccccc5C4)C(=O)[C@@H]3C2)c1`
inactive

Recorded Potency of `O=C(Nc1ccccc1)c1cnc(N2CCCCC2)c2ccccc12` , please.
inactive

Which measured Potency value corresponds to `COCCCNC(=O)CCN(CCC(C)C)C(=O)c1cc(C)oc1C` ?
inactive

Look up Potency: CCC1Oc2ccc(NC(=O)COC)cc2CN(Cc2ccc(F)cc2)C1=O (configuration not stated)
inactive

Find the recorded Potency belonging to `O=C(Nc1ccc2c(N3CCCC3)ncnc2c1)c1cccc(F)c1` and report it.
4.73 µM (active)
